Listed below: Kd values for each entry.
Target: T1, recombinant human IL-31 (hIL-31, BHK produced, A1277F, zcytor17lig CEE) (human, UniProt Q6EBC2 24-164)
T1 construct: also called recombinant hIL-31
T1 sequence: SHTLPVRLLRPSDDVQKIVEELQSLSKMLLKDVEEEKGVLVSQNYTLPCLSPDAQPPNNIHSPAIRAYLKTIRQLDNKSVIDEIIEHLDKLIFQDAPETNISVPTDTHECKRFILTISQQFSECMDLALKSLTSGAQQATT
Experiment: SPR (Biacore), mAb amine-coupled to CM5 chip, hIL-31 injected
Return type: number; implicit unit nM.

{"BINDER": "humanized 292.12.3.1 construct clone 26 (12VH1-gly + HC(fback) + LC(F71Y)) (antibody, human IgG4, V domains shown) VH: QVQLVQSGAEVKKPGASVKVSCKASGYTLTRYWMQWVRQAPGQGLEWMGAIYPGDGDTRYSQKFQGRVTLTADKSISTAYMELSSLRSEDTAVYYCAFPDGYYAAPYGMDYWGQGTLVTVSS VL: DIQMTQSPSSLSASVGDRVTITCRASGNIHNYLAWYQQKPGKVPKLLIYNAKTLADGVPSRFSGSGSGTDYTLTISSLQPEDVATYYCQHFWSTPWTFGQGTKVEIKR", "UNIT_STRING": "nM", "RECORDED_RESULT": 0.68}
{"BINDER": "humanized 292.12.3.1 construct clone 33 (12VH1(germ)-gly + fback) (antibody, human IgG4, V domains shown) VH: QVQLVQSGAEVKKPGASVKVSCKASGYTLTRYWMQWVRQAPGQGLEWMGAIYPGDGDTRYSQKFQGRVTLTADKSTSTAYMELSSLRSEDTAVYYCAFPDGYYAAPYGMDYWGQGTLVTVSS VL: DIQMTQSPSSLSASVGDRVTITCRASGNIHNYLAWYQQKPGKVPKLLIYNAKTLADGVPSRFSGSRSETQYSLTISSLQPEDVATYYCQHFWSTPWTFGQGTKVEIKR", "UNIT_STRING": "nM", "RECORDED_RESULT": 1.3}

Now for another entry.
IN: May I ask what Kd has been recorded for humanized 292.12.3.1 construct clone 30 (12VH1-gly + HC(F29L, V78A, R94F) + LC(F71Y)) (antibody, human IgG4, V domains shown) VH: QVQLVQSGAEVKKPGASVKVSCKASGYTLTRYWMQWVRQAPGQGLEWMGAIYPGDGDTRYSQKFQGRVTMTRDTSISTAYMELSSLRSEDTAVYYCAFPDGYYAAPYGMDYWGQGTLVTVSS VL: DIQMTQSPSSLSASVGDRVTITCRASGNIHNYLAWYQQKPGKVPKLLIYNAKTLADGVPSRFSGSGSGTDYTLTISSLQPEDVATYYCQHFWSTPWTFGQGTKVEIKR ?
OUT: 1.1
